# zone of inhibition values compiled below
Tested on: LC-ST100
testDetails: Kirby-Bauer disk diffusion antibiotic susceptibility testing of LC-ST100
Type: cell-based, Lactobacillus crispatus
conditionParameters: LC-ST100 susceptible
Note to self: number, then unit, no commentary.

Reference set, count: 2
>>> experimentalvalue("CN[C@H](CC(C)C)C(=O)N[C@H]1C(=O)N[C@@H](CC(N)=O)C(=O)N[C@H]2C(=O)N[C@H]3C(=O)N[C@H](C(=O)N[C@H](C(=O)O)c4cc(O)cc(O)c4-c4cc3ccc4O)[C@H](O)c3ccc(c(Cl)c3)Oc3cc2cc(c3O[C@@H]2O[C@H](CO)[C@@H](O)[C@H](O)[C@H]2O[C@H]2C[C@](C)(N)[C@H](O)[C@H](C)O2)Oc2ccc(cc2Cl)[C@H]1O [vancomycin]")
"3.8 cm"
>>> experimentalvalue("CO/N=C(\\C(=O)N[C@@H]1C(=O)N2C(C(=O)O)=C(CSc3nc(=O)c(=O)[nH]n3C)CS[C@H]12)c1csc(N)n1 [ceftriaxone]")
"3.5 cm"

Please examine the following record next.
Per the record, CN(C)[C@@H]1C(O)=C(C(N)=O)C(=O)[C@@]2(O)C(O)=C3C(=O)c4c(O)cccc4[C@@](C)(O)[C@H]3C[C@@H]12 [tetracycline] has zone of inhibition of 4.2 cm
